Taken from ChEMBL document CHEMBL5543064.

test: Toxicity in Sprague-Dawley rat assessed as […] mortality at 12.5 micromol/kg; details: in vivo, 12.5 µmol/kg
property-measured: mortality (%)

test_smiles=CC(=O)C[C@@H](C(=O)CCl)N(C(=O)[C@@H](NC(=O)[C@H](Cc1ccc(O)cc1)NC(C)=O)C(C)C)[C@@H](C)C(N)=O readout_units=% measured_number=33

* * *

Each entry below lists one item and its recorded pIC50 value.
biological target: Caspase-1 (Homo sapiens); experiment: Inhibition of Interleukin-1beta-converting enzyme (unknown origin)
Sequence (P29466 120-297 limits assumed): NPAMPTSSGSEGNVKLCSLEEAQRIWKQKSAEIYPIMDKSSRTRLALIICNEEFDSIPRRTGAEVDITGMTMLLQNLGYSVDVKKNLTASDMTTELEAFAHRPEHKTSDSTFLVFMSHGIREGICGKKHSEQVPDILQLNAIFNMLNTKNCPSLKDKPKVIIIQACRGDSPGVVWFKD
Sequence (P29466 317-404 limits assumed): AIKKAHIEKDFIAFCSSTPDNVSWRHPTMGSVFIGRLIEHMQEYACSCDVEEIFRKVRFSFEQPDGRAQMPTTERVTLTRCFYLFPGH
pIC50: −log10 of the molar value.
property-measured: pIC50

molecule=COC(=O)[C@]1(C)CC[C@]2(C)CC[C@]3(C)C4=CC=C5C(=CC(=O)C(O)=C5C)[C@]4(C)CC[C@@]3(C)[C@@H]2C1 property_measured=pIC50 measured_number=7.25
molecule=COC(=O)c1ccc(NC(=O)CCCCC(=O)Nc2ccc3c(c2)C(=O)C(=O)NC3=O)cc1 property_measured=pIC50 measured_number=7.72
molecule="COC(=O)[C@]1(C)CC[C@]2(C)CC[C@]3(C)C4=CCc5c(cc(OC(C)=O)c(OC(C)=O)c5C)[C@]4(C)CC[C@@]3(C)[C@@H]2C1 [PRISTIMEROL DIACETATE]" property_measured=pIC50 measured_number=7.10
molecule=CC1=C(O)C(=O)C=C2C1=CC=C1[C@@]2(C)CC[C@@]2(C)[C@@H]3C[C@@H](C)C(=O)C[C@]3(C)CC[C@]12C property_measured=pIC50 measured_number=7.24
molecule=CC1=C(O)C(=O)C=C2C1=CC=C1[C@@]2(C)CC[C@@]2(C)[C@@H]3C[C@](C)(C(=O)O)CC[C@]3(C)CC[C@]12C property_measured=pIC50 measured_number=7.40
